target: FLAG-Ago1 (Drosophila melanogaster, UniProt A1Z9J5 1-950); assay: RBNS; miR-184 guide; RBNS: 20 mM HEPES-KOH pH 7.9, 100 mM KOAc, 3.5 mM Mg(OAc) (magnesium acetate), 0.05% CHAPS, 2 mM DTT, 8% glycerol, BSA, tRNA, 25 C 2 h; filter binding: 25 mM HEPES-KOH pH 7.9, 110 mM KOAc, 3.5 mM magnesium acetate, 2 mM DTT, BSA, tRNA, 8% glycerol, 25 C 2 h; competition: 18 mM HEPES-KOH pH 7.4, 100 mM KOAc, 3 mM magnesium acetate, 5 mM DTT, 0.01% IGEPAL, tRNA, 25 C 1 h; conditions: protein: recombinant; tags: FLAG; nucleation bulge C between t5 and t6
Sequence (A1Z9J5 entry or part of it): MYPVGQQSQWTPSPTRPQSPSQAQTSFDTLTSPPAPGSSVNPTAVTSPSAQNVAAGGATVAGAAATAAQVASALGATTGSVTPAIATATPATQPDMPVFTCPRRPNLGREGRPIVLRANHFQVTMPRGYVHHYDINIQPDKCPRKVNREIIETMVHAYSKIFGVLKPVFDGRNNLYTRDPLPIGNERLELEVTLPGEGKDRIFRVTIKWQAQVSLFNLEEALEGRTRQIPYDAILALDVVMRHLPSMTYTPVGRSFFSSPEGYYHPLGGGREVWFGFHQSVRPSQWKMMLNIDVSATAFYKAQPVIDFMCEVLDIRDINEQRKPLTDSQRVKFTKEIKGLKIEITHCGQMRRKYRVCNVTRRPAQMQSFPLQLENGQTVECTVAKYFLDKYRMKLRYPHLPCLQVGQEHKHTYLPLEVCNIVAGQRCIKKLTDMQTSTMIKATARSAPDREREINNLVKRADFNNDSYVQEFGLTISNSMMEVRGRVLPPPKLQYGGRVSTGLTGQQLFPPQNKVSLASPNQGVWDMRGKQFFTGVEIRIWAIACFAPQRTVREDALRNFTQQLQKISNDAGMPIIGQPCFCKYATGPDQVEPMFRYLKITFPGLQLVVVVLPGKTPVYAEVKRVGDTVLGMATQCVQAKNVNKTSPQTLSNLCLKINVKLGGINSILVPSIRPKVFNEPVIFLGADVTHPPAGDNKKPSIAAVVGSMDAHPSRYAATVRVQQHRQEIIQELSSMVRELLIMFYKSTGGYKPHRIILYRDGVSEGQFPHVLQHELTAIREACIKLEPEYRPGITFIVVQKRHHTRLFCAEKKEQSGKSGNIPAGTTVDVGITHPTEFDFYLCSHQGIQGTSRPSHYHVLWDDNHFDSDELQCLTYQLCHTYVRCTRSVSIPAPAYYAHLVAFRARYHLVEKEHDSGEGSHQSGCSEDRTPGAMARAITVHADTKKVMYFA
PROPERTY LABEL: Kd (nM)
Reply with just the number (in nM).

Query string: Can you look up the measured Kd of miR-184 / 8mer-b5.6C (printed b5.6CA) (dsRNA, guide 5' phosphate) RNA 1: UGGACGGAGAACUGAUAAGGGC RNA 2: UCCCGUCCA for me?
Result string: 0.038

Origin of measurements: paper doi:10.1101/2024.11.16.623948
